Target: Rap guanine nucleotide exchange factor 3 (Homo sapiens) (UniProt O95398)
Sequence (O95398 whole entry, looked up): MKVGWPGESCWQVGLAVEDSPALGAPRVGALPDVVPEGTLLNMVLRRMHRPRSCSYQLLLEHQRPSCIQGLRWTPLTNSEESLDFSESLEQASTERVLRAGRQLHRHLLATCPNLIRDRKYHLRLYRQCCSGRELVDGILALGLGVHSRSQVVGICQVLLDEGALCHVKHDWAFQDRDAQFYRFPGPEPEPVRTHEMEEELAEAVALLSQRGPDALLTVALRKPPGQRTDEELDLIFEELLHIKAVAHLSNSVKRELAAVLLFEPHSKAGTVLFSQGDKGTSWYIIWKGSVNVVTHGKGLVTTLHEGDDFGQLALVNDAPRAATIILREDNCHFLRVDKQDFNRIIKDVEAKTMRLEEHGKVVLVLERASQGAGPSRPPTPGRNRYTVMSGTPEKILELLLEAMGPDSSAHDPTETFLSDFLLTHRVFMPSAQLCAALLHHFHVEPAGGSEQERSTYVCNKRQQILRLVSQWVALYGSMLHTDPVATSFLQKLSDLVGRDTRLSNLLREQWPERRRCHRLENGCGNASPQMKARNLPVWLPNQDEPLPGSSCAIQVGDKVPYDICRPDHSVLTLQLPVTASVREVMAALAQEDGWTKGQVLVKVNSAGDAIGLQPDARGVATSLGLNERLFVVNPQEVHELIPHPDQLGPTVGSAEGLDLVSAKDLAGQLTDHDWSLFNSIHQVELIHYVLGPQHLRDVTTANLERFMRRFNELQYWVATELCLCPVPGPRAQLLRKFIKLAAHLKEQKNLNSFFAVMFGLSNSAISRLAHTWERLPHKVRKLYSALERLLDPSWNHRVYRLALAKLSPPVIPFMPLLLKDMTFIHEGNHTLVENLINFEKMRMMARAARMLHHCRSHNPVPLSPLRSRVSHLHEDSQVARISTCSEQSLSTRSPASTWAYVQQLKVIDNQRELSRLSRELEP
Assay: Confirmatory qHTS for antagonist of cAMP-regulated guanine nucleotide exchange factor 3 (EPAC1) (AID 1645880); further: nearly all actives have a fitted effect of over 55% in size
Settings: EPAC1 Rap1B-BODIPY-GDP exchange, fluorescence
Results filed as inconclusive are left out. Calls of active or inactive are those of the source. The call rests on the fitted dose curve; in most records, active means well fitted inhibition curve with a large enough effect; inconclusive means small, poorly fitted or top-dose-only effect; inactive means no such curve, though single readings can be large or run the other way.
Use one of these outcomes when replying: Yes (active), No (inactive)

Worked cases, answers included:
item_smiles=O=[N+]([O-])c1ccc(Sc2cccc[n+]2[O-])c2nonc12 classification=Yes
item_smiles=Cc1ccc(-c2ccc(CCC(=O)O)n2-c2ccc(C(C)C)cc2)cc1 classification=Yes
item_smiles=Cc1ccc(C(=O)Nc2ccccc2[N+](=O)[O-])cc1S(=O)(=O)N1CCOCC1 classification=No
item_smiles=COCc1ccccc1C1=CC(=O)C[C@H](c2ccc(F)cc2)C1 classification=No
item_smiles=CCOC(=O)/C(C#N)=C\c1ccc(N2CCN(C/C=C/c3ccccc3)CC2)cc1 classification=No

Next molecule, please.
## Input Field: outcome | Entry: COc1c(Cl)cc(Cl)cc1CNc1ccc(S(N)(=O)=O)cc1
## Output No
